Target: Urease subunit alpha/Urease subunit beta (Helicobacter pylori (strain ATCC 700392 / 26695) (Campylobacterpylori), UniProt P69996)
Sequence (P69996 whole entry): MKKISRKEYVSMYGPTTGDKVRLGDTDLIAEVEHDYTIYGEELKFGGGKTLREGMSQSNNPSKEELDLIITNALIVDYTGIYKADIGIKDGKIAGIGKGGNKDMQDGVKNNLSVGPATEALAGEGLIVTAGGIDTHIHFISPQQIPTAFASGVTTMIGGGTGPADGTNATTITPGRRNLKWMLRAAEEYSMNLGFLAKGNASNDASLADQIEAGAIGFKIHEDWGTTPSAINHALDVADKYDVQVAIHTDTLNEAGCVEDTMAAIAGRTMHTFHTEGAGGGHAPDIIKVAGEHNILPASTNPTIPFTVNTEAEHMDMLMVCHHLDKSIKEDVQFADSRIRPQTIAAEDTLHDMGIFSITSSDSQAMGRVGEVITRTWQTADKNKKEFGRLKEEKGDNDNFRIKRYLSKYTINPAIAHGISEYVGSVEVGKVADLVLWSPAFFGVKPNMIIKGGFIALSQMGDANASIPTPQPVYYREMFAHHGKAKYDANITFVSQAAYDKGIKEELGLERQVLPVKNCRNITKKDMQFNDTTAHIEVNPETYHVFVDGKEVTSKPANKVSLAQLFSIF
Sequence (P14916 whole entry, further chain): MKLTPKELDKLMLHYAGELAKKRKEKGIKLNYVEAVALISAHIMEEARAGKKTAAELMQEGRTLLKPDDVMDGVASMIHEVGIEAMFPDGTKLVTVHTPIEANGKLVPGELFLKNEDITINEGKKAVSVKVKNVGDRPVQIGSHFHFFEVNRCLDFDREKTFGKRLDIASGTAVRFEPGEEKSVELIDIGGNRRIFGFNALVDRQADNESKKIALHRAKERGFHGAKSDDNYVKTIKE
Assay: Inhibition of Helicobacter pylori urease
READOUT_KIND: IC50 (µM)
Your answer is read as µM, so omit the unit and give the number.

# annotated cases, reported IC50 shown
COMPOUND | IC50 (µM)
NC(N)=S | 23
NC(=O)NO [HYDROXYUREA] | 100

Consider the additional compound presented here.
Specify measured IC50 for O=C(COc1ccc(CC2C(=O)NC(=O)NC2=O)cc1)Nc1cccc(Cl)c1Cl .
0.69

====

Molecular target: Urease (Canavalia ensiformis)
Sequence (P07374 whole entry): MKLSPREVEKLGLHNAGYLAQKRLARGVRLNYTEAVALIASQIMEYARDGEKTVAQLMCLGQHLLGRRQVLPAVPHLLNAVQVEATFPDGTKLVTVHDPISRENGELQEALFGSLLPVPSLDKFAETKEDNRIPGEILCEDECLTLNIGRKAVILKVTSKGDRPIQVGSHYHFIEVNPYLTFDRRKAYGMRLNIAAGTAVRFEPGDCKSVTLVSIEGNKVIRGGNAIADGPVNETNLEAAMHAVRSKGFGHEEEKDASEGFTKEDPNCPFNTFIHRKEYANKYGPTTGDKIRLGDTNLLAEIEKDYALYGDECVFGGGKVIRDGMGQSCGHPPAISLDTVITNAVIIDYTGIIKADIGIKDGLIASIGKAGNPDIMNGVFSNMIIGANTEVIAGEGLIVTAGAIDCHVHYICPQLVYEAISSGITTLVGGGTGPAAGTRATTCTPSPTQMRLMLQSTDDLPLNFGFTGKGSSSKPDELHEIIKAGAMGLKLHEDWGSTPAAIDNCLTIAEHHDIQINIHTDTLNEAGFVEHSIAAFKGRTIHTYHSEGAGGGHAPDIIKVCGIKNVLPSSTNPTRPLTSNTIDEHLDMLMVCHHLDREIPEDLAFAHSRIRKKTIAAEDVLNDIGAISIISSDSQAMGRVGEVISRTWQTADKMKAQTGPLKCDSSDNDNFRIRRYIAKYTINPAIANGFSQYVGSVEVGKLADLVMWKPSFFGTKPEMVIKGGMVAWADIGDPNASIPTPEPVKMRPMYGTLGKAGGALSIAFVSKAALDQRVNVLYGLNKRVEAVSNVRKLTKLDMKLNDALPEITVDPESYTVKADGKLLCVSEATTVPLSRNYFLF
Experiment: Inhibition of jack bean urease assessed as reduction on ammonia production using urea as substrate incubated for 30 mins by indophenol method
READOUT_KIND: pIC50
Please treat pIC50 as minus the base-10 logarithm of the molar concentration.

COMPOUND | READOUT_KIND | RESULT
NC(N)=S | pIC50 | 4.74

Now look at this one.
Report measured pIC50; entry is CCCCCCCCCCCCCC(=O)NC(=S)Nc1cccc(Cl)c1
7.41
